Measured cell viability of individual entries
system: HL-60; assay: cell viability (% survival relative to DMSO control); higher = less cytotoxic; settings: 10 µM; 72 h; co-treatment: pictilisib 100 nM
Provide only the numeric value, understood in %.

Example cases with answers are listed next.
MOLECULE: O=C1Oc2ccccc2C(=O)C1CC1C(=O)Oc2ccccc2C1=O (stereo not given)
SYSTEM: HL-60
cell viability / %: 92.1

MOLECULE: N[C@](CCCCB(O)O)(CCN1CCCCC1)C(=O)O
SYSTEM: HL-60
cell viability / %: 99.5

MOLECULE: Nc1ccn([C@@H]2O[C@H](CO)[C@@H](O)[C@@H]2O)c(=O)n1
SYSTEM: HL-60
cell viability / %: 6.83

MOLECULE: CC(C(=O)O)C(=O)O [methylmalonate]
SYSTEM: HL-60
cell viability / %: 109

Would you kindly look at the next entry?
Inquiry: Need cell viability, item CCOC(=O)[C@@]1(CCCCCCOc2ccc(Cl)cc2)CO1
Reply text: 98

---

tested on: BV-173; test: cell viability (% survival relative to DMSO control, bortezomib = 0%); higher = less cytotoxic; settings: 1 nM; 72 h
PARAMETER MEASURED: cell viability (%)
Reply with just the number (in %).

Would you please look over these solved cases?
COMPOUND: Oc1cc(Cl)ccc1Oc1ccc(Cl)cc1Cl
cell viability [%]: 98
//
COMPOUND: Nc1ncnc2c1ncn2[C@@H]1O[C@H](CSCC[C@H](N)C(=O)O)[C@@H](O)[C@H]1O
cell viability [%]: 98.5

Continue with the next compound.
Inquiry: What value of cell viability has been reported for the following compound? O=C(O)C(Cl)Cl [Dichloroacetate]
Reply text: 96.9

---

Below is a list of entries, each paired with its recorded cell viability value.
system: K-562; assay: cell viability (% survival relative to DMSO control, bortezomib = 0%); higher = less cytotoxic; settings: 1 nM; 72 h
# number only, unit % dropped from output

Inquiry: Quick one: cell viability for CCCc1nn(C)c2c(O)nc(-c3cc(S(=O)(=O)N4CCN(C)CC4)ccc3OCC)nc12 ?
Reply text: 91.1

---

test system: MOLM-13; assay: cell viability (% survival relative to DMSO control, bortezomib = 0%); higher = less cytotoxic; settings: 10000 nM; 72 h
PARAMETER MEASURED: cell viability
Include the unit right after the number.

MOLECULE: C[C@]12CC[C@H](O)CC1=CC[C@@H]1[C@@H]2CC[C@]2(C)C(c3cccnc3)=CC[C@@H]12
SYSTEM: MOLM-13
cell viability: 69.9%
--
MOLECULE: CC(/C=C1\SC(=S)N(CC(=O)O)C1=O)=C\c1ccccc1
SYSTEM: MOLM-13
cell viability: 110%

Inquiry: Query for MOLM-13: what cell viability does the record show for O=C(O)c1cc2sccc2[nH]1 [4H-thieno[3,2-b]pyrrole-5-carboxylic acid] ?
Reply text: 109%

---

tested on: HEL; settings: 72 h
The following molecules are listed with their measured IC50 (cell viability) values.

Sample answers from the record:
MOLECULE: C=CCc1ccc2c(c1O)C(=O)c1ccccc1C2=O [R162]
IC50 (cell viability): > 10 µM
--
MOLECULE: C1CCc2nnc(C34CC5CC(CC(C5)C3)C4)n2CC1 [MERCK-544]
IC50 (cell viability): > 10 µM
--
MOLECULE: CCN(CC)CCN(Cc1ccc(-c2ccc(C(F)(F)F)cc2)cc1)C(=O)Cn1c(SCc2ccc(F)cc2)nc(=O)c2c1CCC2 [Darapladib]
IC50 (cell viability): 2.63 µM
--
MOLECULE: CC(C)C[C@H](NC(=O)[C@@H](O)[C@H](N)Cc1ccccc1)C(=O)O [Ubenimex]
IC50 (cell viability): > 10 µM
--
MOLECULE: OCCN1CCN(CCCN2c3ccccc3Sc3ccc(Cl)cc32)CC1 [Perphenazine]
IC50 (cell viability): > 10 µM
--
MOLECULE: Oc1cc(Cl)ccc1Oc1ccc(Cl)cc1Cl [Triclosan]
IC50 (cell viability): > 10 µM

Read the next record carefully.
Inquiry: So what's the measured IC50 (cell viability) for this one? Cl.OC[C@H]1NC[C@@H](O)[C@@H](O)[C@@H]1O [1-Deoxymannojirimycin hydrochloride]
Reply text: > 10 µM

---

tested on: HEL; assay: cell viability (% survival relative to DMSO control, bortezomib = 0%); higher = less cytotoxic; conditions: 10000 nM; 72 h
PARAMETER MEASURED: cell viability (%)
Dear colleague, please return just the value in %, with no unit written.

Here is how some compounds turned out for cell viability.
COMPOUND: CC(C)C[C@H](NC(=O)[C@@H](O)[C@H](N)Cc1ccccc1)C(=O)O [Ubenimex]
UNITS TEXT: %
NUMBER: 106
//
COMPOUND: CCOC(=O)[C@@]1(CCCCCCOc2ccc(Cl)cc2)CO1 [Etomoxir]
UNITS TEXT: %
NUMBER: 84.5
//
COMPOUND: Clc1ccc(COC(Cn2ccnc2)c2ccc(Cl)cc2Cl)cc1 (centres undefined) [Econazole]
UNITS TEXT: %
NUMBER: 77.3

Proceeding to the next compound to report its cell viability.
Inquiry: What value of cell viability has been reported for the following compound? CCOC(=O)[C@H]1O[C@@H]1C(=O)N[C@@H](CC(C)C)C(=O)NCCC(C)C [Aloxistatin]
Reply text: 88.2

---

// reported cell viability per item
test system: HL-60; assay: cell viability (% survival relative to DMSO control, bortezomib = 0%); higher = less cytotoxic; conditions: 100 nM; 72 h
# output: bare number, implied unit %

STRUCTURE AS SMILES: CCOC(=O)[C@H]1O[C@@H]1C(=O)N[C@@H](CC(C)C)C(=O)NCCC(C)C
SYSTEM: HL-60
cell viability / %: 108
//
STRUCTURE AS SMILES: Cc1coc2c1C(=O)C(=O)c1c-2ccc2c(C)cccc12
SYSTEM: HL-60
cell viability / %: 117

Inquiry: So what does the record say about cell viability for CCOC(=O)[C@@]1(CCCCCCOc2ccc(Cl)cc2)CO1 ?
Reply text: 83.3

---

test system: KCL-22; assay: cell viability (% survival relative to DMSO control, bortezomib = 0%); higher = less cytotoxic; conditions: 1 nM; 72 h
Parameter cell viability: see the listing below.

Study these solved cases before continuing.
MOLECULE: O=C(COc1ccc(C(=O)c2ccccc2)cc1)NC1CCN(Cc2ccccc2)CC1
cell viability: 102%
//
MOLECULE: Cc1ccc(S(=O)(=O)NC2c3ccccc3Oc3ccccc32)cc1
cell viability: 75.6%
//
MOLECULE: C1CCc2nnc(C34CC5CC(CC(C5)C3)C4)n2CC1
cell viability: 99.2%
//
MOLECULE: OCCN1CCN(CCCN2c3ccccc3Sc3ccc(Cl)cc32)CC1
cell viability: 122%

Inquiry: Request: cell viability, test system KCL-22, entry CC(Cc1ccc(O)c(O)c1)C(C)Cc1ccc(O)c(O)c1 (stereo unspecified)
Reply text: 99.8%

Inquiry: Follow-up entry: CC(/C=C1\SC(=S)N(CC(=O)O)C1=O)=C\c1ccccc1
Reply text: 106%

---

Listed here: items and their measured cell viability.
tested on: myeloid leukemia patient primary cells Pat.7; assay: cell viability (% survival relative to DMSO control); higher = less cytotoxic; details: 10000 nM; 72 h

Previously resolved entries follow.
COMPOUND: C[C@]12O[C@H](C[C@]1(O)CO)n1c3ccccc3c3c4c(c5c6ccccc6n2c5c31)CNC4=O
SYSTEM: myeloid leukemia patient primary cells Pat.7
cell viability: < 0%

COMPOUND: C[C@H]1O[C@@H](O[C@H]2[C@@H](O)C[C@H](O[C@H]3[C@@H](O)C[C@H](O[C@H]4CC[C@@]5(C)[C@H](CC[C@@H]6[C@@H]5C[C@@H](O)[C@]5(C)[C@@H](C7=CC(=O)OC7)CC[C@]65O)C4)O[C@@H]3C)O[C@@H]2C)C[C@H](O)[C@@H]1O
SYSTEM: myeloid leukemia patient primary cells Pat.7
cell viability: > 100%

Inquiry: Could you share which cell viability value was measured for CC12CCC(O)CC1CCC1C2CCC2(C)C(C3=CC(=O)OC3)CCC12O (stereo not drawn) ?
Reply text: > 100%

---

As shown below, each of these molecules has a reported cell viability value.
tested on: HL-60; experiment: cell viability (% survival relative to DMSO control, bortezomib = 0%); higher = less cytotoxic; settings: 1000 nM; 72 h
// note: answer is a bare numeric in %

Consider the worked cases shown below.
MOLECULE: C#Cc1cnc(O)nc1O [Eniluracil]
NUMBER: 95.1
--
MOLECULE: Cc1noc2c1-c1ccccc1C(c1ccc(Cl)cc1)=N[C@H]2CC(N)=O [CPI-0610]
NUMBER: 33
--
MOLECULE: Cc1coc2c1C(=O)C(=O)c1c-2ccc2c(C)cccc12 [Tanshinone I]
NUMBER: 105
--
MOLECULE: O=c1c2ccccc2[se]n1-c1ccccc1 [Ebselen]
NUMBER: 95.6

Inquiry: // lookup cell viability for Clc1ccc(COC(Cn2ccnc2)c2ccc(Cl)cc2Cl)cc1 (centres undefined) [Econazole]
Reply text: 81.2

Inquiry: Would you mind doing CN(C/C=C/C#CC(C)(C)C)Cc1cccc2ccccc12 [Terbinafine] as well?
Reply text: 105

Inquiry: Could you do the same for COc1cc2c(NC3CCN(C)CC3)nc(N3CCCN(C)CC3)nc2cc1OCCCN(C)C [UNC0224] , please?
Reply text: 89.5
